test-name: supercomplex reporter luminescence per Hoechst cell count – Hoechst nuclei count (AID 1645838);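 also: control cybrid cells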
condition-details: Cells, luminescence/Hoechst cell count ratio, measured here: cell number, Hoechst nuclei count
Screen size: about 2,000 compounds; about 100 (5%) were called active. For the sample, actives were picked, then their nearest neighbours and some compounds at random.
Classify as follows. Reported cell count greater than or equal to 5000: Y. Reported cell count below: N.

Exercise: Is it the case that CCCCCCCCCCCCC/C=C/[C@@H](O)[C@H](CO)NC(=O)CCCCC has cell count reaching or exceeding 5000?
Solution: Y

Exercise: Would you kindly repeat that for NC(=O)c1cccc(-c2cccc(OC(=O)NC3CCCCC3)c2)c1 ?
Solution: Y

Exercise: // repeat for COc1ccc(/C=C/C(=O)Nc2c(O)cccc2C(=O)O)cc1OC and report
Solution: Y

Exercise: Queued: CCCCCCCCCCCCCCCCCC(=O)NCCO
Solution: Y

Exercise: Please do the same for O=C(O)CCC/C=C\C[C@@H]1[C@@H](/C=C/[C@@H](O)COc2cccc(C(F)(F)F)c2)[C@H](O)C[C@@H]1O as well.
Solution: Y

Exercise: What about this compound? CCCCCC(=O)CC[C@H]1C(=O)C[C@H](O)[C@@H]1C/C=C\CCCC(=O)O
Solution: Y

Exercise: Please do the same for Cc1cccc(Nc2nc(-c3ccncc3)cs2)c1 as well.
Solution: Y

Exercise: Repeat for the following compound: CO[C@H]1C[C@@H]2CC[C@@H](C)[C@@](O)(O2)C(=O)C(=O)N2CCCC[C@H]2C(=O)O[C@H]([C@@H](C)C[C@@H]2CC[C@@H](O)[C@H](OC)C2)CC(=O)[C@H](C)/C=C(\C)[C@@H](O)[C@@H](OC)C(=O)[C@H](C)C[C@H](C)/C=C/C=C/C=C/1C
Solution: N

Exercise: Here is the next compound: CC(C)CCOc1ccc(N)cc1
Solution: Y

Exercise: Check CCCCC[C@H](O)/C=C/[C@H]1C2COC(C2)[C@@H]1C/C=C/CCCC(=O)O (stereo partly specified) too.
Solution: Y

Exercise: Same again, this time with CCN(CC)c1ccc(C2=C(Cl)C(=O)c3ncccc3C2=O)cc1
Solution: N

Exercise: Ok, now CN(C)c1ccc(C(=O)NCCCCCCC(=O)NO)cc1
Solution: N

Exercise: Also check CCCCC[C@H](O)CC[C@H]1[C@H](O)CC(=O)[C@@H]1CCCCCCC(=O)O
Solution: Y

Exercise: And what about the compound CCCCCCCCCCCCCCCC(=O)OC[C@H](COP(=O)([O-])OCC[N+](C)(C)C)OC(=O)CCCCCCCC(=O)/C=C/C(=O)O ?
Solution: Y

Exercise: And then O=C(/C=C/c1cccc(C(=O)NO)c1)NO , what is it?
Solution: N

Exercise: Cool, now COC(=O)CCC[C@H](O)[C@H](O)CO
Solution: Y

Exercise: Could you do the same for CCCCC[C@@](C)(O)/C=C/[C@H]1C(=O)C[C@H](O)[C@@H]1C/C=C\CCCC(=O)O , please?
Solution: Y

Exercise: What do you have for CCCCC[C@H](O)/C=C/[C@H]1[C@H](O)CC(=O)[C@@H]1CCCCCCC(=O)NCCO ?
Solution: Y

Exercise: Follow-up entry: CC(C)CCOc1ccc(NC(=S)Nc2ccc(OCCC(C)C)cc2)cc1
Solution: Y

Exercise: Ok, now C=C(C)[C@@H]1CCC(C)=C[C@H]1c1c(O)cc(C)cc1O
Solution: Y

Exercise: Please give the result for O=C(CCCCc1ccccc1)C(F)(F)C(F)(F)F too.
Solution: Y
